Biological target: human αvβ3 receptor (Homo sapiens, UniProt P05106+P06756)
Sequence (P06756 31-889 limits assumed): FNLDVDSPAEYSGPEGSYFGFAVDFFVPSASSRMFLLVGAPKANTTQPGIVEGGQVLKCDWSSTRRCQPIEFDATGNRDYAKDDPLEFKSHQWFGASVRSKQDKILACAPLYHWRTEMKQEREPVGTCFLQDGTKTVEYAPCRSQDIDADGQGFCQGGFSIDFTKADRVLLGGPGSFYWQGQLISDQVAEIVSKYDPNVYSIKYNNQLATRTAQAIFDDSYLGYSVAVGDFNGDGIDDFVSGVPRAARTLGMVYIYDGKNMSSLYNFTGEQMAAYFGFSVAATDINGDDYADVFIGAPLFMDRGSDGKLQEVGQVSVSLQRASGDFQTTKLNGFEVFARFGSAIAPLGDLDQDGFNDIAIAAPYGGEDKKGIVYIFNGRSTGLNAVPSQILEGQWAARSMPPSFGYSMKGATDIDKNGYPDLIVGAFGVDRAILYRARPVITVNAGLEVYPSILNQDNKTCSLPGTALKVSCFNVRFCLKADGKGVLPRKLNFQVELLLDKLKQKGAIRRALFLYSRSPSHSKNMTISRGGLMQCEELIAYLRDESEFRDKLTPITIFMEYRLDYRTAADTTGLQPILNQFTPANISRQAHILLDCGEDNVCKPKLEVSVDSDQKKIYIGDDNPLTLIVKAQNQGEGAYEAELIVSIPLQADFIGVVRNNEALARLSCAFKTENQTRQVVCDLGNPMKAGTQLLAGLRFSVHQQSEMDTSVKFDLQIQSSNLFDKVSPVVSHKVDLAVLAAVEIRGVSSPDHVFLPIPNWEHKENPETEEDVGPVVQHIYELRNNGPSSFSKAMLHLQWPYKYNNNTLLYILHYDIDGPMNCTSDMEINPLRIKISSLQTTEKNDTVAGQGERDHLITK
Sequence (P06756 891-1048 limits assumed): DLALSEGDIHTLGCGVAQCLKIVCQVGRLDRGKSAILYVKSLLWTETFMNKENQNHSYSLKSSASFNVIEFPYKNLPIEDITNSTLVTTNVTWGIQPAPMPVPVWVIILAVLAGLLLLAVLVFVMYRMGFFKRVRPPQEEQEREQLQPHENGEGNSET
Sequence (P05106 27-788): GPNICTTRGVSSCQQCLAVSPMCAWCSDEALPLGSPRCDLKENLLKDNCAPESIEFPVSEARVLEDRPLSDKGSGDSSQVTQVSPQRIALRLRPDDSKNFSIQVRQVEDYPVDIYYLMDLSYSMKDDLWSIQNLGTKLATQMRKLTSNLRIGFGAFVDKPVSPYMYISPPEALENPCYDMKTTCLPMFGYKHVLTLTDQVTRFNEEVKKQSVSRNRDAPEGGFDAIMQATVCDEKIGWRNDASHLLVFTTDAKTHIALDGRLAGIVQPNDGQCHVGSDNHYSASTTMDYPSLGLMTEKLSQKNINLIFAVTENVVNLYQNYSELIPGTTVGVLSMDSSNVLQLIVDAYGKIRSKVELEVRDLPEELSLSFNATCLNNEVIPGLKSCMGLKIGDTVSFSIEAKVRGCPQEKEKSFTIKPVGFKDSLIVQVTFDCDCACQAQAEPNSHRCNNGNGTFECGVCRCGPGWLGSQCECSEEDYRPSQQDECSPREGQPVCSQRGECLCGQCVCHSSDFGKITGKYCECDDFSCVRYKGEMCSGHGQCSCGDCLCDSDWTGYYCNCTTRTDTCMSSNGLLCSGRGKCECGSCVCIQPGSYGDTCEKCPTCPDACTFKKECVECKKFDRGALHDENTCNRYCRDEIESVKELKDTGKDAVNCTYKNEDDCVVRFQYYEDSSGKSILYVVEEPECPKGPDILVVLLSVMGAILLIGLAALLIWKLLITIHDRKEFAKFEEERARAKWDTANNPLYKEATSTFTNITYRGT
Test: Kistrin/Vitronectin Receptor (αvβ3) ELISA test
Assay type: binding
Conditions: Kistrin-coated plates, co-incubated 3 hours at ambient temperature, 4B12-HRP antibody, OD 450 nm, read-out: K/VnR IC50
pIC50: −log10 of the molar value. Structures can show the parent of a compound that is named as a salt.
Mark fulfilled for reported pIC50 of 8 or greater; mark not fulfilled for anything smaller.

- compound: "O=C(O)[C@H](Cc1ccc(OCCCc2ccc3c(n2)NCCC3)cc1)Nc1nc2ccccc2s1"
  group_label: "not fulfilled"
- compound: "O=C(CCCOc1ccc(C[C@H](Nc2nc3cccc(Cl)c3o2)C(=O)O)cc1)NC1=NCCCN1 [Example 15, trifluoroacetate]"
  group_label: "fulfilled"
- compound: "O=C(CCCOc1ccc(C[C@H](Nc2nc3cc(Br)ccc3s2)C(=O)O)cc1)NC1=NCCCN1"
  group_label: "not fulfilled"
- compound: "O=C(CCCOc1ccc(C[C@H](Nc2nc3c(ccc4ccccc43)o2)C(=O)O)cc1)NC1=NCCCN1"
  group_label: "not fulfilled"
- compound: "CN(c1ccccc1)S(=O)(=O)c1ccc2oc(N[C@@H](Cc3ccc(OCCCC(=O)NC4=NCCCN4)cc3)C(=O)O)nc2c1"
  group_label: "fulfilled"
- compound: "O=C(O)[C@H](Cc1ccc(OCCCc2ccc3c(n2)NCCC3)cc1)Nc1nc2ccccc2o1"
  group_label: "not fulfilled"
- compound: "O=C(CCCOc1ccc(C[C@H](Nc2nc3ccccc3o2)C(=O)O)cc1)NC1=NCCCN1"
  group_label: "fulfilled"
- compound: "O=C(CCCOc1ccc(C[C@H](Nc2nc3ccccc3[nH]2)C(=O)O)cc1)NC1=NCCCN1"
  group_label: "not fulfilled"
- compound: "COc1ccc2[nH]c(N[C@@H](Cc3ccc(OCCCC(=O)NC4=NCCCN4)cc3)C(=O)O)nc2c1"
  group_label: "not fulfilled"

---

Target: human αvβ3 receptor (Homo sapiens, UniProt P05106+P06756)
Assay: Kistrin/Vitronectin Receptor (αvβ3) ELISA test
Details: Kistrin-coated plates, co-incubated 3 hours at ambient temperature, 4B12-HRP antibody, OD 450 nm, read-out: K/VnR IC50
Protocol: Kistrin/Vitronectin Receptor (αvβ3) ELISA Test 96-well MaxiSorp planes are coated overnight at […] with 100 μl of Kistrin at 1 μg/ml (dilution in a coating buffer: carbonate 0.05 M/NaOH pH 9.6). […] The enzymatic reaction develops between 6 and 10 minutes for Kistrin/αvβ3 then its evolution is stopped by the addition of 100 μl of 1M phosphoric acid. The optical density is determined at 450 nm. […]
pIC50: −log10 of the molar value. Where a name gives a salt, the structure may show the parent alone.
measure: pIC50

- compound: "O=C(CCCOc1ccc(C[C@H](Nc2nc3cc(Br)cc(F)c3o2)C(=O)O)cc1)NC1=NCCCN1"
  measure: "pIC50"
  numeric_result: 8.05
- compound: "O=C(O)[C@H](Cc1ccc(OCCCc2ccc3c(n2)NCCC3)cc1)Nc1nnnn1Cc1ccccc1"
  measure: "pIC50"
  numeric_result: 8.05
- compound: "O=C(CCCOc1ccc(C[C@H](Nc2nc3cccc(Br)c3s2)C(=O)O)cc1)NC1=NCCCN1"
  measure: "pIC50"
  numeric_result: 8.15
- compound: "O=C(CCCOc1ccc(C[C@H](Nc2nc3cc(Cl)cc(Cl)c3o2)C(=O)O)cc1)NC1=NCCCN1"
  measure: "pIC50"
  numeric_result: 8.15
- compound: "O=C(CCCOc1ccc(C[C@H](Nc2nc3cc4ccccc4cc3o2)C(=O)O)cc1)NC1=NCCCN1"
  measure: "pIC50"
  numeric_result: 8.22
- compound: "O=C(CCCOc1ccc(C[C@H](Nc2nc3ccc(F)cc3o2)C(=O)O)cc1)NC1=NCCCN1"
  measure: "pIC50"
  numeric_result: 8.15
- compound: "O=C(CCCOc1ccc(C[C@H](Nc2nc3cccc(F)c3o2)C(=O)O)cc1)NC1=NCCCN1"
  measure: "pIC50"
  numeric_result: 8.05
- compound: "O=C(CCCOc1ccc(C[C@H](Nc2nc3ccc(Cl)cc3s2)C(=O)O)cc1)NC1=NCCCN1"
  measure: "pIC50"
  numeric_result: 8.00
- compound: "O=C(CCCOc1ccc(C[C@H](Nc2nc3cc(C(F)(F)F)ccc3o2)C(=O)O)cc1)NC1=NCCCN1"
  measure: "pIC50"
  numeric_result: 8.00
- compound: "O=C(CCCOc1ccc(C[C@H](Nc2nc3cc(F)ccc3o2)C(=O)O)cc1)NC1=NCCCN1 [Example 14, trifluoroacetate]"
  measure: "pIC50"
  numeric_result: 8.15
- compound: "O=C(CCc1ccc(C(=O)NC[C@H](Nc2nc3cc(Br)ccc3o2)C(=O)O)cc1)NC1=NCCCN1"
  measure: "pIC50"
  numeric_result: 8.22
- compound: "O=C(CCCOc1ccc(C[C@H](Nc2nc3ccc(Cl)cc3o2)C(=O)O)cc1)NC1=NCCCN1"
  measure: "pIC50"
  numeric_result: 8.05
- compound: "O=C(CCCOc1ccc(C[C@H](Nc2nc3ccc(F)c(F)c3o2)C(=O)O)cc1)NC1=NCCCN1"
  measure: "pIC50"
  numeric_result: 7.92
- compound: "Cc1ccc2[nH]c(N[C@@H](Cc3ccc(OCCCC(=O)NC4=NCCCN4)cc3)C(=O)O)nc2c1"
  measure: "pIC50"
  numeric_result: 7.85
- compound: "O=C(CCCOc1ccc(C[C@H](Nc2nc3cc(S(=O)(=O)Nc4ccccc4)ccc3o2)C(=O)O)cc1)NC1=NCCCN1"
  measure: "pIC50"
  numeric_result: 8.15
- compound: "O=C(CCCOc1ccc(C[C@H](Nc2nc3cc(Cl)ccc3o2)C(=O)O)cc1)NC1=NCCCN1"
  measure: "pIC50"
  numeric_result: 8.05
- compound: "O=C(CCCOc1ccc(C[C@H](Nc2nc3cc(-c4ccccc4)ccc3o2)C(=O)O)cc1)NC1=NCCCN1"
  measure: "pIC50"
  numeric_result: 8.22
- compound: "O=C(CCCOc1ccc(C[C@H](Nc2nc3ccc(Br)cc3s2)C(=O)O)cc1)NC1=NCCCN1"
  measure: "pIC50"
  numeric_result: 8.10
- compound: "O=C(CCc1ccc(C(=O)NC[C@H](Nc2nc3ccc(Br)cc3s2)C(=O)O)cc1)NC1=NCCCN1"
  measure: "pIC50"
  numeric_result: 8.15
- compound: "O=C(CCCOc1ccc(C[C@H](Nc2nc3ccccc3s2)C(=O)O)cc1)NC1=NCCCN1"
  measure: "pIC50"
  numeric_result: 8.22
